# Tgt: A. baumannii PBP1a (Acinetobacter baumannii, UniProt A0ABX6CK30)
# Assay method text: Bocillin-FL competition binding via gel filtration, A. baumannii PBP1a
# Condition summary: competition binding assay using Bocillin-FL via gel filtration; read-out: A. baumannii PBP1a Potency
Each record here notes measured EC50.

1. O=C(O)c1c(F)ccc2c1OB(O)[C@@H](NC(=O)C(NC(=O)N1CCN(C3CCN(C(=O)Nc4cc(O)c(F)c(F)c4)CC3)C(=O)C1=O)c1cc(F)c(O)c(O)c1Cl)C2 (some centres unmarked) [Example 488] | < 10 µM
2. NCc1ccc(C(=O)N2CCC(N3CCN(C(=O)NC(C(=O)N[C@H]4Cc5ccc(F)c(C(=O)O)c5OB4O)c4cc(F)c(O)c(O)c4Cl)C3=O)CC2)cc1 (single isomer, unassigned) [Example 604] | 10 to 50 µM

# lookup: EC50 of O=C(NCCCN1CCN(C(=O)NC(C(=O)N[C@H]2Cc3ccc(F)c(C(=O)O)c3OB2O)c2cc(F)c(O)c(O)c2Cl)C(=O)C1=O)Nc1ccncc1 (some centres unmarked) [Example 228] 10 to 50 µM

# lookup: EC50 of O=C(O)c1c(F)ccc2c1OB(O)[C@@H](NC(=O)[C@@H](NC(=O)N1CCN(C3CCN(C(=O)c4ccc(O)cc4)CC3)C1=O)c1cc(F)c(O)c(O)c1Cl)C2 (single isomer, unassigned) [Example 462] < 10 µM

# lookup: EC50 of O=C(NCCCN1CCN(C(=O)NC(C(=O)N[C@H]2Cc3ccc(F)c(C(=O)O)c3OB2O)c2cc(F)c(O)c(O)c2Cl)C(=O)C1=O)c1ccc(O)cc1O (some centres unmarked) [Example 307] < 10 µM

====

# Tgt: PBP3 from Pseudomonas aeruginosa (PAO1) (Pseudomonas aeruginosa)
# Sequence (G3XD46 whole entry): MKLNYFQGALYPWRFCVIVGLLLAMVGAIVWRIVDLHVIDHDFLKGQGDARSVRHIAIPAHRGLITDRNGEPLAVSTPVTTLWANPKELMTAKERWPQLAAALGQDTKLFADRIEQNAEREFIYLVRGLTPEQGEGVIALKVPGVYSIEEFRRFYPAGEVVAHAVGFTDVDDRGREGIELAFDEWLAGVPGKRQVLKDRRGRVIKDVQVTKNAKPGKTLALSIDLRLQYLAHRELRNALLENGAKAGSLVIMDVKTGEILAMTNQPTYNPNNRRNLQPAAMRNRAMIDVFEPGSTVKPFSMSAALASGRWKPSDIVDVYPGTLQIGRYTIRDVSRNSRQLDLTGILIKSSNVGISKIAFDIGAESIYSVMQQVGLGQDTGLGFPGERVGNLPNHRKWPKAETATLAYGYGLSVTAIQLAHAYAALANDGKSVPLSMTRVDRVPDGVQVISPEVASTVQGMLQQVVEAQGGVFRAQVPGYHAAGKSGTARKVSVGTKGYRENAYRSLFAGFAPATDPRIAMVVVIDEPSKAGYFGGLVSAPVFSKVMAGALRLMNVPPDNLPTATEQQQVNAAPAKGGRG
# Assay method text: Bocillin-FL fluorescence polarization competition binding, P. aeruginosa PBP3
# Condition summary: Binding affinity to P. aeruginosa PBP3; fluorescence polarization competition binding assay using Bocillin-FL; read-out: P. aeruginosa PBP3 Potency
Each record here notes measured IC50.

Consider the worked cases shown below.
1) O=C(NCCCN1CCN(C(=O)N[C@@H](C(=O)N[C@H]2Cc3ccc(F)c(C(=O)O)c3OB2O)c2cc(F)c(O)c(O)c2Cl)C(=O)C1=O)c1cccnc1 [Example 210] | < 10 µM
2) CS(=O)(=O)N1CCN(C(=O)N[C@@H](C(=O)N[C@H]2Cc3cccc(C(=O)O)c3OB2O)c2cc(F)c(P(=O)(O)O)c(F)c2)C1=O (single isomer, unassigned) [Example 18] | < 10 µM
3) O=C(NCCCN1CCN(C(=O)NC(C(=O)N[C@H]2Cc3ccc(F)c(C(=O)O)c3OB2O)c2cc(F)c(O)c(O)c2Cl)C(=O)C1=O)c1c(F)cncc1Cl (some centres unmarked) [Example 403] | < 10 µM
4) CC(=O)N1CCC[C@@H]1C(=O)N[C@H](C(=O)N[C@H]1Cc2cccc(C(=O)O)c2OB1O)c1ccc(P(=O)(O)O)cc1 [Example 33] | 10 to 50 µM

Then this molecule:
# lookup: IC50 of O=C(NCCCS(=O)(=O)N1CCN(C(=O)NC(C(=O)N[C@H]2Cc3ccc(F)c(C(=O)O)c3OB2O)c2cc(F)c(O)c(O)c2Cl)C1=O)c1ccncc1 (some centres unmarked) [Example 272] < 10 µM

====

# Tgt: A. baumannii PBP1a (Acinetobacter baumannii, UniProt A0ABX6CK30)
# Sequence (A0ABX6CK30 1-851): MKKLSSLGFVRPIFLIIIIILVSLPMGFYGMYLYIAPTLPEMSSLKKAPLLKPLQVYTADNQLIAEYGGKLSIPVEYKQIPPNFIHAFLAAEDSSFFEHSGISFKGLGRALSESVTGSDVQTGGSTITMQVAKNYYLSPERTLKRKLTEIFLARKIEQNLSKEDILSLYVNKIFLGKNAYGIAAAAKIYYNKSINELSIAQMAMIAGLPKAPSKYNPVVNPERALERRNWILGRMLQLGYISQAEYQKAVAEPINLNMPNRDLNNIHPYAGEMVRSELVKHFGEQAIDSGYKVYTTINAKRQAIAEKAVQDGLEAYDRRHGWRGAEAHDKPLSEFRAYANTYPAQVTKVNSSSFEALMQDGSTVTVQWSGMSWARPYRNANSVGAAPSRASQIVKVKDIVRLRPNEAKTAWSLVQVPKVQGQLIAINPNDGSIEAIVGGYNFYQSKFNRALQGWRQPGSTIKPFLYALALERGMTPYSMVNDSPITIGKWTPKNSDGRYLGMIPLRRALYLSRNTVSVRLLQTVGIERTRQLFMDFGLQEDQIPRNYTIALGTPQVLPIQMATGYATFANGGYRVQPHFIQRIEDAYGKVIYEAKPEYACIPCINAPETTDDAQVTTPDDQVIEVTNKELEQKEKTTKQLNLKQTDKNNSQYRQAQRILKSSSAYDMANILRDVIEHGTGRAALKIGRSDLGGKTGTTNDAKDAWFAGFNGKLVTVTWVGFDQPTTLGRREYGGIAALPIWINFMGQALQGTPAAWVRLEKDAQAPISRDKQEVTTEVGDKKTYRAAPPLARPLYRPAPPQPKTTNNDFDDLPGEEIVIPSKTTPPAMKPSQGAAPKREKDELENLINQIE
# Assay method text: Bocillin-FL competition binding via gel filtration, A. baumannii PBP1a
# Condition summary: competition binding assay using Bocillin-FL via gel filtration; read-out: A. baumannii PBP1a Potency
Each record here notes measured EC50.

Consider the worked cases shown below.
1) O=C(O)c1c(F)ccc2c1OB(O)[C@@H](NC(=O)[C@H](NC(=O)N1CCN(C3CCN(C(=O)Nc4ccc(O)cc4)CC3)C(=O)C1=O)c1cc(F)c(O)c(O)c1Cl)C2 (single isomer, unassigned) [Example 426] | 10 to 50 µM
2) O=C(NCCCS(=O)(=O)N1CCN(C(=O)NC(C(=O)N[C@H]2Cc3ccc(F)c(C(=O)O)c3OB2O)c2cc(F)c(O)c(O)c2Cl)C1=O)c1ccc(O)cc1 (some centres unmarked) [Example 269] | < 10 µM
3) O=C(O)c1c(F)ccc2c1OB(O)[C@@H](NC(=O)[C@H](NC(=O)N1CCN(C3CCN(C(=O)Nc4cc(F)c(O)c(O)c4Cl)CC3)C1=O)c1ccc(P(=O)(O)O)cc1)C2 (single isomer, unassigned) [Example 500] | < 10 µM
4) O=C(O)c1c(F)ccc2c1OB(O)[C@@H](NC(=O)[C@H](NC(=O)N1CCN(C3CCN(C(=O)c4cc(O)ccc4Cl)CC3)C1=O)c1cc(F)c(O)c(O)c1Cl)C2 (single isomer, unassigned) [Example 434] | < 10 µM

# lookup: EC50 of O=C(NCCCN1CCN(C(=O)N[C@@H](C(=O)N[C@H]2Cc3ccc(F)c(C(=O)O)c3OB2O)c2cc(F)c(O)c(O)c2Cl)C(=O)C1=O)c1cc(F)nc(F)c1 (racemic) [Example 401] < 10 µM
